procedure-text: Volume of distribution at steady state in dog at 0.5 mg/kg, iv
Assay type: ADME, organism-based, Canis lupus familiaris
Parameters: dose 0.5 mg/kg, route intravenous
setup-conditions: in vivo
endpoint-label: Vd

Name the reported Vd value associated with the molecule `C[C@@H](NC(=O)Cc1ccc(C2CC2)cc1)c1ccc(OCC(F)(F)F)cn1`
0.7 L/kg

---

study-target: Voltage-dependent L-type calcium channel subunit alpha-1C (Homo sapiens)
Sequence (Q13936 whole entry): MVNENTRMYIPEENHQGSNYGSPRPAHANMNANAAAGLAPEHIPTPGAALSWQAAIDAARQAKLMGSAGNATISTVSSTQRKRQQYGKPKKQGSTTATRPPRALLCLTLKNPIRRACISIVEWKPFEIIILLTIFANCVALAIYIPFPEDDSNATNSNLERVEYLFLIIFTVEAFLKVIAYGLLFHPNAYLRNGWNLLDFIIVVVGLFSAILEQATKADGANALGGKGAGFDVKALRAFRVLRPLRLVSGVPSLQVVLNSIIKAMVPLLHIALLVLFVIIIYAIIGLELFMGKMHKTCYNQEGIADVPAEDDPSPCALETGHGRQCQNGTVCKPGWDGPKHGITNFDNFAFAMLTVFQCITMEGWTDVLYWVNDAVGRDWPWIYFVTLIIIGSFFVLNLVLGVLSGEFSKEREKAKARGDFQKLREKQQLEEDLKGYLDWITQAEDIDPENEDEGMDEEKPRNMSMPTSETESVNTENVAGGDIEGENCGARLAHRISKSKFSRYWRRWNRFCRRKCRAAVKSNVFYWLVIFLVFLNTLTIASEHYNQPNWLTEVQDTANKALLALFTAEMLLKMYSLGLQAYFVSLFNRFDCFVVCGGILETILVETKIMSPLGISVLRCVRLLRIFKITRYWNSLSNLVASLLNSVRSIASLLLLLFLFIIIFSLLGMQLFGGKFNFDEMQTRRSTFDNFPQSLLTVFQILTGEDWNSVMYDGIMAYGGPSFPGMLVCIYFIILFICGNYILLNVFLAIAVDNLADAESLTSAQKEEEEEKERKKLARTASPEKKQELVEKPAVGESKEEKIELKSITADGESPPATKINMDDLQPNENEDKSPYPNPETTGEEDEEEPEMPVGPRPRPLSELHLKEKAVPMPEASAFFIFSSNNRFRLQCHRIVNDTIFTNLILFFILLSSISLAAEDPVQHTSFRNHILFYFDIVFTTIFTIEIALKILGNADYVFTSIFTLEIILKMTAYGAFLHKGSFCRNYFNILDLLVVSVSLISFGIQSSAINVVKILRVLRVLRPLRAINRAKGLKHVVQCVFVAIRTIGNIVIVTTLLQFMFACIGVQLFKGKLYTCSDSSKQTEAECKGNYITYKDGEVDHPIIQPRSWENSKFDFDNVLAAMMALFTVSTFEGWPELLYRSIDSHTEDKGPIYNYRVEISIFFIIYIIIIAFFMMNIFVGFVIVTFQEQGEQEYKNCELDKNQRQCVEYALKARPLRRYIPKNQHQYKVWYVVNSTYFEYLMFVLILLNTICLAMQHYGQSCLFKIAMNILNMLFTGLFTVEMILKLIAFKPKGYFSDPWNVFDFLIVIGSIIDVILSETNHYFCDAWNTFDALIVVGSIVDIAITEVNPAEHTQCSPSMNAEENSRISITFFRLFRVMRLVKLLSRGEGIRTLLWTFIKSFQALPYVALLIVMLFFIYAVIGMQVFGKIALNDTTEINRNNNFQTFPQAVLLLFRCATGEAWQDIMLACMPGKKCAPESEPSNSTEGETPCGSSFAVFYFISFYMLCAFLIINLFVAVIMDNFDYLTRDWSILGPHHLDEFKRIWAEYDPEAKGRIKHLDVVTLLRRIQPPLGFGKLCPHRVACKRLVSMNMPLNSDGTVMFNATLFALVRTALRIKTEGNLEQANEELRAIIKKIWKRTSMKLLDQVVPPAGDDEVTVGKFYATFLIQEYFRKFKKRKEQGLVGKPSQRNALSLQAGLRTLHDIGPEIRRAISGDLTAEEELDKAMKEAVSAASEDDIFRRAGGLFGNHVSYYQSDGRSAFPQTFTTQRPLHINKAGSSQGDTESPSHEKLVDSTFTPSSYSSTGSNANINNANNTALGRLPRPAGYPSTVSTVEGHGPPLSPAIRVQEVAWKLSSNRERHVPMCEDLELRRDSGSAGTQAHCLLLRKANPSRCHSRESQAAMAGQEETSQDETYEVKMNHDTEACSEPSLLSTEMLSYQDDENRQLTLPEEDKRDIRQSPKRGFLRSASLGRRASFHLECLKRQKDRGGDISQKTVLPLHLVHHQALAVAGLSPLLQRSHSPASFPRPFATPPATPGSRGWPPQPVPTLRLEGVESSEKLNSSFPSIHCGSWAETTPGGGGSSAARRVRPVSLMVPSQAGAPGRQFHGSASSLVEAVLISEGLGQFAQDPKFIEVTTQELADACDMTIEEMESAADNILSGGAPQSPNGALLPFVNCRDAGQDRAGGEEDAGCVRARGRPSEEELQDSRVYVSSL
procedure-text: Inhibition of L-type Cav1.2 at -80 mV holding potential by tandard voltage-clamp electrophysiology assay
endpoint-label: IC50

Dear colleague, I am looking for the recorded IC50 of the following compound: `C[C@@H](NC(=O)Cc1ccc(C2CC2)cc1)c1ccc(OCC(F)(F)F)cn1`
> 30 µM

---

study-target: Voltage-dependent P/Q-type calcium channel subunit alpha-1A (Homo sapiens)
procedure-text: Inhibition of P/Q-type Cav2.1 at -80 mV holding potential by tandard voltage-clamp electrophysiology assay
pIC50: −log10 of the molar value.
endpoint-label: pIC50

Item under review: `C[C@@H](NC(=O)Cc1ccc(C2CC2)cc1)c1ccc(OCC(F)(F)F)cn1` . Reported pIC50?
< 4.52

---

procedure-text: Volume of distribution at steady state in rhesus monkey at 0.5 mg/kg, iv
Type: ADME, organism-based, Macaca mulatta
Design: dose 0.5 mg/kg, route intravenous
setup-conditions: in vivo
endpoint-label: Vd

Can you share its Vd? I mean this compound: `C[C@@H](NC(=O)Cc1ccc(C2CC2)cc1)c1ccc(OCC(F)(F)F)cn1`
0.9 L/kg

---

procedure-text: Half life in dog at 0.5 mg/kg, iv
Type: ADME, organism-based, Canis lupus familiaris
Set-up: dose 0.5 mg/kg, route intravenous
setup-conditions: in vivo
endpoint-label: half-life (h)
# number only, unit h dropped from output

Given the entry `C[C@@H](NC(=O)Cc1ccc(C2CC2)cc1)c1ccc(OCC(F)(F)F)cn1` , report its measured half-life.
11

---

study-target: Voltage-dependent T-type calcium channel subunit alpha-1I (Homo sapiens, UniProt Q9P0X4)
Sequence (Q9P0X4 whole entry): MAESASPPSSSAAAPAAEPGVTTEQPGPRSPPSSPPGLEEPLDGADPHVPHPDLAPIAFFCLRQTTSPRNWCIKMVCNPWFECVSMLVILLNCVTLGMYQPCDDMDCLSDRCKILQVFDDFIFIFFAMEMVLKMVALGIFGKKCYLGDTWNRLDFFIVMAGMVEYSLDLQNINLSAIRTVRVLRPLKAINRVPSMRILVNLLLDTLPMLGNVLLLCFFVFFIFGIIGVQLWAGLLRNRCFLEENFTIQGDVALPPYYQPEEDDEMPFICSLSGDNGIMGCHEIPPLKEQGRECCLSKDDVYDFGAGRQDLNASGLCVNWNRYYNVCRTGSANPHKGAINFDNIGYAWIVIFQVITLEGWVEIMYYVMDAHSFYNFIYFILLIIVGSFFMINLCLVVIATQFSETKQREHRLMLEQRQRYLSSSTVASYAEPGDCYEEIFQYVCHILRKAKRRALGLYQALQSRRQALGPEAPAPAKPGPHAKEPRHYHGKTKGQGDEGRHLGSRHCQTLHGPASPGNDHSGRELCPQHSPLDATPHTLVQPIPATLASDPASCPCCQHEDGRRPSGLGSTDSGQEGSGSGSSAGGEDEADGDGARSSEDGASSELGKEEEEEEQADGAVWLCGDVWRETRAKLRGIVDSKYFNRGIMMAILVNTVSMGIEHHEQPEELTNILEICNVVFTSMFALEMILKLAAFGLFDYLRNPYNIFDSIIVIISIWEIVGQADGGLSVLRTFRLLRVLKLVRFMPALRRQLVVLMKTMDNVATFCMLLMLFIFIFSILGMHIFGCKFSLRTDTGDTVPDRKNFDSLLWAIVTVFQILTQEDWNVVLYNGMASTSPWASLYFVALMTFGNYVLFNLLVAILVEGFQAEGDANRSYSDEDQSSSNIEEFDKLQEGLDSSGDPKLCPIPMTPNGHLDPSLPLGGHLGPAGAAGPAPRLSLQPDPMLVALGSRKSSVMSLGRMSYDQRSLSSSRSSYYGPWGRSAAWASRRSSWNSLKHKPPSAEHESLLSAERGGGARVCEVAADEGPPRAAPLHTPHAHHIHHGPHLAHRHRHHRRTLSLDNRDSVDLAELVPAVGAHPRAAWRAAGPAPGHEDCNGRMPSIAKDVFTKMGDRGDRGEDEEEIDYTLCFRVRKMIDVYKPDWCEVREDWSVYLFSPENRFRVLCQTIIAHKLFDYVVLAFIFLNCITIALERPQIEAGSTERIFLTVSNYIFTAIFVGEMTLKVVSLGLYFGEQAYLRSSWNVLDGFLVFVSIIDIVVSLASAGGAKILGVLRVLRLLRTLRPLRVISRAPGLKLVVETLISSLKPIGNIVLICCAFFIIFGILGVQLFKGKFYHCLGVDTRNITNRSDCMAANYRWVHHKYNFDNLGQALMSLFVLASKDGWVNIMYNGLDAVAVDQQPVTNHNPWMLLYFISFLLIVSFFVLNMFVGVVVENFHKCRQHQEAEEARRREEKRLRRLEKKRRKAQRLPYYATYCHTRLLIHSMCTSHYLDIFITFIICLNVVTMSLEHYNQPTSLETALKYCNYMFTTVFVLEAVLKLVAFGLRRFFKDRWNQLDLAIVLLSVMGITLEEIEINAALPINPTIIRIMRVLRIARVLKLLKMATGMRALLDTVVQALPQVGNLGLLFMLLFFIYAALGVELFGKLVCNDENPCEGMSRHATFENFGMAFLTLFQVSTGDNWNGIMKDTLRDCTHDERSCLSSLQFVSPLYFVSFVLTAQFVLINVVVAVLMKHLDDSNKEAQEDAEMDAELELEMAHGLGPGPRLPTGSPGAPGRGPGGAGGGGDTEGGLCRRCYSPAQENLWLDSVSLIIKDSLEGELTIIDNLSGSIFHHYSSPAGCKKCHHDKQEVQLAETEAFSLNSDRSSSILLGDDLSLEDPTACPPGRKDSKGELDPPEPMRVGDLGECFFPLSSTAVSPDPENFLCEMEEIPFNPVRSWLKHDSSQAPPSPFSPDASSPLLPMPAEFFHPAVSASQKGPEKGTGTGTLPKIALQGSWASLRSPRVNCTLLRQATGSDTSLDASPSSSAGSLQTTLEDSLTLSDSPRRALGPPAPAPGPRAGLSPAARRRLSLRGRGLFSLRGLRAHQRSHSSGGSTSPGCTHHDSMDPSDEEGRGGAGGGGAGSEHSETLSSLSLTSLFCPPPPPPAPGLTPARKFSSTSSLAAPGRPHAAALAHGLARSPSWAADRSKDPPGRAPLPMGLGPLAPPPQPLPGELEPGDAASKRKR
procedure-text: Antagonist activity at Cav3.3 alpha1i expressed in HEK293 cells by depolarized FLIPR assay
Type: functional, cell-based
endpoint-label: IP (nM)
Report the figure in nM without appending any unit label.

For the compound shown here, CC(NC(=O)Cc1ccc(C(C)(C)C)cc1)c1ccccn1 (racemic) , give the reported IP.
427

Also check `C[C@@H](NC(=O)Cc1ccc(C(C)(C)C)cc1)c1ccc(Cl)cc1`
123
